# System: ABC-1
# Assay Notes: relative viability (nuclei count vs DMSO), 5 days (fraction); higher = more cells survive
# Condition Notes: first compound 0.02 µM
Assay Metric: relative viability
Could you respond with only the numeric value?

Answered cases to consult:
- Compound: "CC(=O)O[C@@]12CO[C@@H]1C[C@H](O)[C@@]1(C)C(=O)[C@H](O)C3=C(C)[C@@H](OC(=O)[C@H](O)[C@@H](NC(=O)OC(C)(C)C)c4ccccc4)C[C@@](O)([C@@H](OC(=O)c4ccccc4)[C@H]21)C3(C)C [Docetaxel] + COc1cc2c(Oc3ccc(NC(=O)C4(C(=O)Nc5ccc(F)cc5)CC4)cc3F)ccnc2cc1OCCCN1CCOCC1 [Foretinib] (partner 0.25 µM)"
  relative viability: 0.216
- Compound: "CC(=O)O[C@@]12CO[C@@H]1C[C@H](O)[C@@]1(C)C(=O)[C@H](O)C3=C(C)[C@@H](OC(=O)[C@H](O)[C@@H](NC(=O)OC(C)(C)C)c4ccccc4)C[C@@](O)([C@@H](OC(=O)c4ccccc4)[C@H]21)C3(C)C [Docetaxel] + Cc1nc(NC(=O)N2CCC[C@H]2C(N)=O)sc1-c1ccnc(C(C)(C)C(F)(F)F)c1 [Alpelisib] (partner 2 µM)"
  relative viability: 0.337

Consider the record given below.
# lookup: relative viability of CC(=O)O[C@@]12CO[C@@H]1C[C@H](O)[C@@]1(C)C(=O)[C@H](O)C3=C(C)[C@@H](OC(=O)[C@H](O)[C@@H](NC(=O)OC(C)(C)C)c4ccccc4)C[C@@](O)([C@@H](OC(=O)c4ccccc4)[C@H]21)C3(C)C [Docetaxel] + N=C(N)NC(=N)NCCc1ccccc1 [Phenformin] (partner 250 µM)
0.212
